- protocolNotes: Quantitative High-Throughput drug screen in 47 multiple myeloma cell lines against the NCATS MIPE library collection: Delta47_JCRB cell viability assay (AID 1918925; further: nearly all actives have a fitted effect of over 45% in size)
- testSettings: Delta47 myeloma viability, CellTiter-Glo ATP, 48 h; series mostly up to 45.8 µM
Records with an inconclusive call do not appear. Activity calls are given as the source filed them. The call rests on the fitted dose curve; in most records, active means well fitted cell-killing curve with a large enough effect; inconclusive means small, poorly fitted or top-dose-only effect, or effect the other way; inactive means no such curve, though single readings can be large or run the other way.
Bench note: report the call from True (active), False (inactive)

{"columns": ["compound", "classification"],
 "data": [
  ["Cc1ccc(S(=O)(=O)Nc2cc(Cl)ccc2C(=O)Nc2nc(-c3ccccc3)cs2)cc1", "True"],
  ["COc1cc(C)c(Sc2cnc(NC(=O)c3ccc(CNC(C)C(C)C)cc3)s2)cc1C(=O)N1CCN(C(C)=O)CC1 (stereo not given)", "True"],
  ["CC(C)(C)c1cc(C(C)(C)C)c(NC(=O)c2c[nH]c3ccccc3c2=O)cc1O", "False"],
  ["OCCCNc1cc(-c2ccnc(Nc3cccc(Cl)c3)n2)ccn1", "True"]
]}

Lab note: next compound to report on.
Query: What call does the record list for `COc1ccc(F)c(F)c1C(=O)c1cnc(NC2CCN(S(C)(=O)=O)CC2)nc1N` ?
Reply: True

====

- protocolNotes: P-glycoprotein substrates identified in KB-8-5-11 adenocarcinoma cell line, qHTS therapeutic library screen (AID 1346987); further: nearly all actives have a fitted effect of over 65% in size
- testSettings: KB-8-5-11 (P-gp overexpressing) viability, CellTiter-Glo, 72 h; series mostly up to 44.5 µM
- Description: The ATP-binding cassette transporters P-glycoprotein (P-gp) is known to limit brain penetration of many chemotherapy drugs. […] All cell lines were plated into 1536-well plates at 500 cells/well in 5 uL media. […] CellTiter-Glo reagent (Promega) was dispensed into the wells, incubated for 5 min and luminescence was read on a ViewLux instrument (Perkin-Elmer). […]
Records with an inconclusive call do not appear. Activity calls are given as the source filed them. Calls come from the whole dose curve; as a rule, active = well fitted inhibition curve with a large enough effect; inconclusive = small, poorly fitted or top-dose-only effect; inactive = flat fitted curve, though single readings scatter.
Bench note: report the call from active, inactive

{"columns": ["compound", "classification"],
 "data": [
  ["CCCCCCCCCC(=O)N[C@@H](Cc1c[nH]c2ccccc12)C(=O)N[C@H](CC(N)=O)C(=O)N[C@@H](CC(=O)O)C(=O)N[C@@H]1C(=O)NCC(=O)N[C@@H](CCCN)C(=O)N[C@@H](CC(=O)O)C(=O)N[C@H](C)C(=O)N[C@@H](CC(=O)O)C(=O)NCC(=O)N[C@H](CO)C(=O)N[C@@H]([C@@H](C)CC(=O)O)C(=O)N[C@@H](CC(=O)c2ccccc2N)C(=O)O[C@@H]1C", "inactive"],
  ["O=c1[nH]c(=O)n(C2CCCO2)cc1F (configuration not stated)", "inactive"],
  ["C=CC(=O)Nc1cc2c(Nc3ccc(F)c(Cl)c3)ncnc2cc1C#CC(C)(C)N1CCN(C)CC1", "active"],
  ["Cc1ccc(-c2ncn(-c3ccc(Nc4nccc(-c5cccc(N6CCOCC6)c5)n4)cc3)n2)cn1", "active"],
  ["COc1cc(OC2CCN(C)CC2)ccc1Nc1ncc2c(n1)n(C1CCCC1)c(=O)n2C", "active"],
  ["O=C(O)[C@H](Cc1c[nH]c2ccccc12)N1C(=O)c2ccccc2C1=O", "inactive"]
]}

Query: What call does the record list for `CS(=O)(=O)c1ccc(-c2cnc(N)c(C(=O)Nc3ccccc3)n2)cc1` ?
Reply: inactive

====

- protocolNotes: Quantitative High-Throughput drug screen in 47 multiple myeloma cell lines against the NCATS MIPE library collection: Karpas25_ECACC cell viability assay (AID 1918968; further: nearly all actives have a fitted effect of over 35% in size)
- testSettings: Karpas25 myeloma viability, CellTiter-Glo ATP, 48 h; series mostly up to 45.8 µM
Inconclusive results are not listed. Active and inactive are the calls of the source. The call rests on the fitted dose curve; in most records, active means well fitted cell-killing curve with a large enough effect; inconclusive means small, poorly fitted or top-dose-only effect, or effect the other way; inactive means no such curve, though single readings can be large or run the other way.
Bench note: report the call from active, inactive

Worked set:
{"columns": ["compound", "classification"],
 "data": [
  ["NC(=O)c1c(OCc2c(F)cc(Br)cc2F)nsc1NC(=O)NCCCCN1CCCC1", "active"],
  ["COc1cc2c(cc1-c1c(C)noc1C)ncc1[nH]c(=O)n([C@H](C)c3ccccn3)c12", "active"],
  ["CC=C1NC(=O)[C@H]2CSSCCC=C[C@H](CC(=O)N[C@H](C(C)C)C(=O)N2)OC(=O)[C@H](C(C)C)NC1=O", "active"]
]}

Query: What call does the record list for `O=C(O)CO.[NH2-].[NH2-].[Pt+2]` ?
Reply: inactive

Query: What call does the record list for `O=C(Nc1nc2cccc(-c3ccc(CN4CCS(=O)(=O)CC4)cc3)n2n1)C1CC1` ?
Reply: active

Query: What call does the record list for `COc1ccc(-n2nc(C(N)=O)c3c2C(=O)N(c2ccc(N4CCCCC4=O)cc2)CC3)cc1` ?
Reply: inactive

Query: What call does the record list for `CC(C)=CCCC(C)=CCCC(C)=CCSc1ccccc1C(=O)O` ?
Reply: active

Query: What call does the record list for `CN1CC[C@@H](c2c(O)cc(O)c3c(=O)cc(-c4ccccc4Cl)oc23)[C@@H](O)C1` ?
Reply: active

Query: What call does the record list for `Cc1nc(Nc2n[nH]c3c2CN(C(=O)N[C@H](CN(C)C)c2ccccc2)C3(C)C)c2sccc2n1` ?
Reply: active

====

- protocolNotes: Quantitative High-Throughput drug screen in 47 multiple myeloma cell lines against the NCATS MIPE library collection: KMM1_JCRB cell viability assay (AID 1918960); further: nearly all actives have a fitted effect of over 30% in size
- testSettings: KMM1 myeloma viability, CellTiter-Glo ATP luminescence, 48 h; series mostly up to 45.8 µM
Inconclusive results are not listed. Active and inactive are the calls of the source. The call rests on the fitted dose curve; in most records, active means well fitted cell-killing curve with a large enough effect; inconclusive means small, poorly fitted or top-dose-only effect, or effect the other way; inactive means no such curve, though single readings can be large or run the other way.
Bench note: report the call from 1.0 = active, 0.0 = inactive

Worked set:
{"columns": ["molecule", "classification"],
 "data": [
  ["O=c1[nH]nc(Sc2ncc([N+](=O)[O-])s2)n1-c1ccc2c(c1)OCCO2", 1.0],
  ["Cc1[nH]nc2ccc(-c3cncc(OC[C@@H](N)Cc4ccccc4)c3)cc12", 1.0],
  ["CNC(=O)c1ccccc1Nc1nc(Nc2ccc(N3CCOCC3)cc2OC)ncc1Cl", 1.0]
]}

Query: What call does the record list for `CC(=O)c1c(C)c2cnc(Nc3ccc(N4CCNCC4)cn3)nc2n(C2CCCC2)c1=O` ?
Reply: 1.0

Query: What call does the record list for `O=C(CCCCCCC(=O)Nc1ccc([C@H]2O[C@@H](CSc3nc(-c4ccccc4)c(-c4ccccc4)o3)C[C@@H](c3ccc(CO)cc3)O2)cc1)NO` ?
Reply: 0.0

Query: What call does the record list for `Cc1[nH]c2ccccc2c1CCNCc1ccc(C=CC(=O)NO)cc1` ?
Reply: 1.0

Query: What call does the record list for CC1COC2(CCN(c3nc(=O)c4cc(C(F)(F)F)cc([N+](=O)[O-])c4s3)CC2)O1 (centres undefined) ?
Reply: 0.0

Query: What call does the record list for `COc1cc2c(Oc3ccc(-c4cnc(Nc5ccc(F)cc5)n(C)c4=O)cc3F)ccnc2cc1OCCCN1CCOCC1` ?
Reply: 1.0

Query: What call does the record list for `N#CCNC(=O)c1ccc(-c2ccnc(Nc3ccc(N4CCOCC4)cc3)n2)cc1` ?
Reply: 0.0

====

- protocolNotes: Quantitative High-Throughput drug screen in 47 multiple myeloma cell lines against the NCATS MIPE library collection: ARD_JJKsccE7 cell viability assay (AID 1918929; further: potency means the concentration at half of the fitted maximal effect)
- testSettings: ARD myeloma cell line viability, CellTiter-Glo, 48 h; series mostly up to 45.8 µM
Results filed as inconclusive are left out. Activity calls are given as the source filed them. The call rests on the fitted dose curve; in most records, active means well fitted cell-killing curve with a large enough effect; inconclusive means small, poorly fitted or top-dose-only effect, or effect the other way; inactive means no such curve, though single readings can be large or run the other way.
Entries and their measured Potency follow.

{"columns": ["compound", "Potency"],
 "data": [
  ["CCN(CC)CCCCNc1ncc2cc(-c3cc(OC)cc(OC)c3)c(NC(=O)NC(C)(C)C)nc2n1", "23500 nM (active)"],
  ["Cc1cccc(C=NNc2cc(N3CCOCC3)nc(OCCc3ccccn3)n2)c1", "1050 nM (active)"],
  ["CNC(=O)c1ccccc1Nc1nc(Nc2ccc(N3CCOCC3)cc2OC)ncc1Cl", "93.5 nM (active)"],
  ["Cc1nc(N)ncc1-c1nc(N2CCOCC2)c2sc(C(C)(C)O)cc2n1", "33.2 nM (active)"],
  ["Nc1nc(NCCNc2ncc(-n3ccnc3)c(-c3ccc(Cl)cc3Cl)n2)ccc1[N+](=O)[O-]", "6620 nM (active)"]
]}

Query: Given the entry `NC(=O)Nc1cc(-c2cccc(F)c2)sc1C(=O)N[C@H]1CCCNC1` , report its measured Potency.
Reply: 526 nM (active)

Query: Given the entry `CCN1CCN(Cc2ccc(-c3cc4c(N[C@H](C)c5ccccc5)ncnc4[nH]3)cc2)CC1` , report its measured Potency.
Reply: 46.9 nM (active)

Query: Given the entry CC(NCc1ccc2c(c1)nc(NC(=O)c1ccc(-c3cn[nH]c3)s1)n2CC(C)(C)O)C(C)(C)C (centres undefined) , report its measured Potency.
Reply: 296 nM (active)

====

- protocolNotes: qHTS of pediatric cancer cell lines to identify multiple opportunities for drug repurposing: Primary screen for OHS-50 cells (AID 1347103); further: nearly all actives have a fitted effect of over 40% in size; further: potency means the concentration at half of the fitted maximal effect
- testSettings: OHS-50 osteosarcoma viability, CellTiter-Glo luminescence, 48 h; series mostly up to 57.3 µM
Inconclusive results are not listed. Active and inactive are the calls of the source. Calls come from the whole dose curve; as a rule, active = well fitted cell-killing curve with a large enough effect; inconclusive = small, poorly fitted or top-dose-only effect; inactive = no such curve, though single readings can be large or run the other way.
endpointLabel: Potency

{"columns": ["compound", "Potency"],
 "data": [
  ["CC(C)CC(=O)Nc1n[nH]c2c1CN(C(=O)C1CCN(C)CC1)C2(C)C", "3.43 µM (active)"],
  ["Cc1cc(Nc2cc(CN3CCOCC3)c3nc(C)c(Cc4ccc(Cl)cc4F)n3n2)n[nH]1", "27.3 µM (active)"],
  ["Cn1c(=O)n(-c2ccc(C(C)(C)C#N)cc2)c2c3cc(-c4cnc5ccccc5c4)ccc3ncc21", "0.109 µM (active)"],
  ["Cc1c(C)n(Cc2ccc(-c3ccccc3C(=O)O)cc2)c2ccc(C(=O)N[C@@H](C)c3ccc([N+](=O)[O-])cc3)cc12", "2.73 µM (active)"],
  ["O=C(Nc1cc(C(F)(F)F)cc(C(F)(F)F)c1)c1cc(Cl)ccc1O", "0.432 µM (active)"],
  ["COc1c(N2C[C@@H]3CCCN[C@H]3C2)c(F)cc2c(=O)c(C(=O)O)cn(C3CC3)c12", "inactive"],
  ["CC(C)(C)c1cnc(CSc2cnc(NC(=O)C3CCNCC3)s2)o1", "0.273 µM (active)"],
  ["COC(=O)[C@]12CCC(C)(C)C[C@@H]1[C@@H]1C(=O)C=C3[C@@]4(C)C=C(C#N)C(=O)C(C)(C)[C@@H]4CC[C@@]3(C)[C@]1(C)CC2", "0.685 µM (active)"]
]}

Query: Given the entry `Cc1cn(-c2cc(NC(=O)c3ccc(C)c(Nc4nccc(-c5cccnc5)n4)c3)cc(C(F)(F)F)c2)cn1` , report its measured Potency.
Reply: inactive

Query: Given the entry `CC(=O)c1c(C)c2cnc(Nc3ccc(N4CCNCC4)cn3)nc2n(C2CCCC2)c1=O` , report its measured Potency.
Reply: 19.3 µM (active)

Query: Given the entry COc1cc(C)c(Sc2cnc(NC(=O)c3ccc(CNC(C)C(C)C)cc3)s2)cc1C(=O)N1CCN(C(C)=O)CC1 (stereo unspecified) , report its measured Potency.
Reply: 2.43 µM (active)

Query: Given the entry `CNC(=O)c1nn(C)c2c1C(C)(C)Cc1cnc(Nc3ccc(N4CCN(C)CC4)cc3)nc1-2` , report its measured Potency.
Reply: 1.53 µM (active)

// provenance: PubChem BioAssay (NCATS)
